Source: the supplement of paper PMC10126150

tested on: ATP; assay: switch fluorescence ratio, 500 uM ATP over buffer (Cy3 cluster intensity, sum of 5 cycles each) (fold (ratio)); higher = stronger signal-on switching upon ATP binding; sequences stand for … in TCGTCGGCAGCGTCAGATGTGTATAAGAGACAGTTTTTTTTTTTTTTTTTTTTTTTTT…TC; conditions: aptamer strand: ATP DNA aptamer (quencher-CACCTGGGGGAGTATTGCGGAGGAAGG + anchor), 100 nM annealed; ATP concentration: 500 uM;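 further: ATP exposure 15 min at 22 °C before imaging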
Endpoint Label: switch fluorescence ratio
Answer as a number with no unit attached.

Below, 3 sequences whose answers are already recorded.
AAATATCTGC = 1.04
CTTCAAAGTA = 1.03
GCAATGTAGG = 1.04

Q: switch fluorescence ratio of AATGTTTGTC on ATP?
Result: 1.03

Q: Could you do the same for TTTGTTAGGT , please?
Result: 1

Q: Record: GAGGGTTGTT
Result: 0.997

Q: Now try TTTGGAGCAG .
Result: 1.14

====

// reported switch fluorescence ratio for each item listed
test system: ATP; experiment: switch fluorescence ratio, 500 uM ATP over buffer (Cy3 cluster intensity, sum of 5 cycles each) (fold (ratio)); higher = stronger signal-on switching upon ATP binding; sequences stand for … in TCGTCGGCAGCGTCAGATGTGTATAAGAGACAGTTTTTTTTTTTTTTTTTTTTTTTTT…TC; conditions: aptamer strand: ATP DNA aptamer (quencher-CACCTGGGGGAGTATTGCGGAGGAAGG + anchor), 100 nM annealed; ATP concentration: 500 uM;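 further: ATP exposure 15 min at 22 °C before imaging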
Give the figure only, with no unit attached.

TATTAATTAT = 1.01
CGTGCGAAGG = 1.03

Q: Quick one: switch fluorescence ratio for CGAGATATGT ?
Result: 1

Q: Check TATGTGGGGT too.
Result: 0.992

Q: Same again, this time with TGTAGTTGGA
Result: 0.973

Q: Another sequence to look at: GAGCTTTCCG
Result: 1.19

Q: Follow-up item: TTGGTATGTA
Result: 1

====

test system: ATP; assay: switch fluorescence ratio, 500 uM ATP over buffer (Cy3 cluster intensity, sum of 5 cycles each) (fold (ratio)); higher = stronger signal-on switching upon ATP binding; sequences stand for … in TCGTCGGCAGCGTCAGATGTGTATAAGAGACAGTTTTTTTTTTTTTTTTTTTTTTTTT…TC; conditions: aptamer strand: ATP DNA aptamer (quencher-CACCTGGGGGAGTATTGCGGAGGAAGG + anchor), 100 nM annealed; ATP concentration: 500 uM;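 further: ATP exposure 15 min at 22 °C before imaging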
Let's look at some sequences and their measured switch fluorescence ratio.
Kindly provide the number alone.

TTGGTCTATC = 0.998

Q: Give the measured switch fluorescence ratio of CTGATGCCGT .
Result: 1.08

Q: Then GTATGGGACG ?
Result: 1

Q: Request: ATAGCTGGTT
Result: 0.991

Q: Now this one: GGTCATTTTT
Result: 0.995

Q: # repeat for ATCGAATAGC
Result: 1.02

Q: What do you have for TTCGGACTGC ?
Result: 1.06

Q: Then TTTTTATGCT ?
Result: 0.99

Q: Next up: TAAAATTTAT
Result: 0.994

Q: Next entry: TGCGGTTAGC
Result: 1

Q: Consider next the sequence TGACGTGTTG in the same way.
Result: 1.02

Q: Next record, please: CTTTTTTTTT
Result: 1.02

Q: // next record GTTGGATTTC
Result: 1.01

Q: Try TATGAGATAG next.
Result: 0.982

====

List of switch fluorescence ratio values.
test system: ATP; assay: switch fluorescence ratio, 500 uM ATP over buffer (Cy3 cluster intensity, sum of 5 cycles each) (fold (ratio)); higher = stronger signal-on switching upon ATP binding; sequences stand for … in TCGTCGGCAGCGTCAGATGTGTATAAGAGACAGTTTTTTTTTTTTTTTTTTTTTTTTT…TC; details: aptamer strand: ATP DNA aptamer (quencher-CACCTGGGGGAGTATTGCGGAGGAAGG + anchor), 100 nM annealed; ATP concentration: 500 uM;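 further: ATP exposure 15 min at 22 °C before imaging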
Answer with a number only.

TAGTTATTA = 0.989
TTCTAACTGG = 0.995
GGGGCTATTT = 1.01
TGGATTATAG = 1.02

Q: Looking for the measured switch fluorescence ratio of TCATAATTGA , can you help?
Result: 0.99

====

test system: ATP; experiment: switch fluorescence ratio, 500 uM ATP over buffer (Cy3 cluster intensity, sum of 5 cycles each) (fold (ratio)); higher = stronger signal-on switching upon ATP binding; sequences stand for … in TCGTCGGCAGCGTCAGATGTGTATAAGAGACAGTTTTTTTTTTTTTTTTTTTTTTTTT…TC; conditions: aptamer strand: ATP DNA aptamer (quencher-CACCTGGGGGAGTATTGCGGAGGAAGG + anchor), 100 nM annealed; ATP concentration: 500 uM;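 further: ATP exposure 15 min at 22 °C before imaging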
Recorded switch fluorescence ratio, one value per entry.

Example cases with answers are listed next.
AACGGTTTCC = 1.02
TGAGGATACA = 1.02
CGATGTAGGC = 1.05
TTCGGAACAG = 0.967
TCGACGTTTG = 1.01
TGGGATATTA = 1
GAGTATGCCC = 1.02
AGTGGGCAGG = 1.04

Consider the record given below.
Q: Item under review: CAGTGCACTC . Reported switch fluorescence ratio?
Result: 0.992

====

tested on: ATP; assay: switch fluorescence ratio, 500 uM ATP over buffer (Cy3 cluster intensity, sum of 5 cycles each) (fold (ratio)); higher = stronger signal-on switching upon ATP binding; sequences stand for … in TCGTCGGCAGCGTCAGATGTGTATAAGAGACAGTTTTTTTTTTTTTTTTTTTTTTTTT…TC; conditions: aptamer strand: ATP DNA aptamer (quencher-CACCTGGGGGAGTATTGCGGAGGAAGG + anchor), 100 nM annealed; ATP concentration: 500 uM;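 further: ATP exposure 15 min at 22 °C before imaging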
Endpoint Label: switch fluorescence ratio
Would you mind answering with just the numeric figure?

GGTATGGAGT = 1.01
GAATGGAGCC = 0.995
TATCAGCATG = 1.01
TTATTATGGG = 0.987
CGCAATTGAG = 3.38
TAGCAACGGG = 1.03
CAAAAATTGG = 1
TAGTGCGCGC = 1.03

Q: Which switch fluorescence ratio value belongs to TTTGATTCTT ?
Result: 1

Q: Check AGACACGAAT too.
Result: 0.981

Q: Check GAACATTTTT too.
Result: 1.03

Q: Then what about the sequence TTTCACAAGG ?
Result: 0.984

Q: Entry CAATGTTCGA please
Result: 0.981

Q: Continue with GGAAGGCATA
Result: 0.983

Q: Param item: ACGGGGAGGG
Result: 1.04

Q: Okay, and TGGTCGTTCT ?
Result: 1.03

Q: Entry to check: GGCGTGATGC
Result: 1.09

Q: Now consider TAGGGCTCAG .
Result: 0.993

Q: Please answer likewise for CTCGCCGATA
Result: 1.03

Q: Subsequent entry: AATGATAGTT
Result: 0.986

Q: Please do the same for TCAAACAGGG as well.
Result: 1.04

====

test system: ATP; assay: switch fluorescence ratio, 500 uM ATP over buffer (Cy3 cluster intensity, sum of 5 cycles each) (fold (ratio)); higher = stronger signal-on switching upon ATP binding; sequences stand for … in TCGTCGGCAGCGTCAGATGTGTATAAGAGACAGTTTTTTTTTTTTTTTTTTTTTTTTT…TC; conditions: aptamer strand: ATP DNA aptamer (quencher-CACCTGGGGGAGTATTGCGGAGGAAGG + anchor), 100 nM annealed; ATP concentration: 500 uM;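 further: ATP exposure 15 min at 22 °C before imaging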
Measured switch fluorescence ratio, listed per entry.
Please reply with the number alone, leaving off any unit.

GAAAAGGTAA = 1.02

Q: What switch fluorescence ratio value was documented for this sequence, TTGGTTGGAA ?
Result: 1

Q: Same read-out for CTCCTGGCCA ?
Result: 1.13

Q: How about TTCCGTTATG ?
Result: 1.04

====

tested on: ATP; assay: switch fluorescence ratio, 500 uM ATP over buffer (Cy3 cluster intensity, sum of 5 cycles each) (fold (ratio)); higher = stronger signal-on switching upon ATP binding; sequences stand for … in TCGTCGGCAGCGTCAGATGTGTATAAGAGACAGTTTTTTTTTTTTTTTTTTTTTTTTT…TC; settings: aptamer strand: ATP DNA aptamer (quencher-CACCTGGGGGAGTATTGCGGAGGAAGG + anchor), 100 nM annealed; ATP concentration: 500 uM;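 further: ATP exposure 15 min at 22 °C before imaging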
Endpoint Label: switch fluorescence ratio
Give a plain numeric answer without units written out.

GGGGAATTGG = 0.994
TTCATTTCGG = 1
TTAGAGGCAT = 1.05
GGTGCCGGGG = 1.02

Q: Which measured switch fluorescence ratio value corresponds to TAGATTGGAG ?
Result: 0.987

Q: Now try TGGGTTAAAG .
Result: 0.993

Q: Try this sequence too: TGGGCTTCGG
Result: 0.969

Q: Continue with AAGCCGGGAT
Result: 1.02

Q: Another: GATTTGGGTT
Result: 1.02

Q: Try the sequence CGTGGGTGGG
Result: 1.01
